The values you see were collected from patent US11945844B2.

Test: Sweetness potency relative to MNEI (Table 10)
Format: in vivo
Settings: MNEI = 1.0
RECORDED ENDPOINT: Sweetness Potency relative to MNEI

Below, 3 molecules whose answers are already recorded.
>>> result("MNEI: single chain Monellin (MNEI) reference protein, SEQ ID NO:5, 96 amino acids (protein, Monelin MNEI) GEWEIIDIGPFTQNLGKFAVDEENKIGQYGRLTFNKVIRPCMKKTIYENEGFREIKGYEYQLYVYASDKLFRADISEDYKTRGRKLLRFNGPVPPP")
1.0
>>> result("DM12: modified MNEI protein, SEQ ID NO: 20, I8T/C41T as printed in Table 4 (protein, DM12) GEWEIIDTGPFTQNLGKFAVDEENKIGQYGRLTFNKVIRPTMKKTIYENEGFREIKGYEYQLYVYASDKLFRADISEDYKTRGLKLLRFNGPVPPP")
0.5
>>> result("DM08: modified MNEI protein, SEQ ID NO:16, E2N/E23V/Y65K (protein, DM8) GNWEIIDIGPFTQNLGKFAVDEVNKIGQYGRLTFNKVIRPCMKKTIYENEGFREIKGYEYQLYVKASDKLFRADISEDYKTRGRKLLRFNGPVPPP")
6.0

Proceeding to the next molecule to report its Sweetness Potency relative to MNEI.
Request: Could you tell me which Sweetness Potency relative to MNEI is on file for DM09: modified MNEI protein, SEQ ID NO:17, E2N/E23A/Y65R (protein, DM9) GNWEIIDIGPFTQNLGKFAVDEANKIGQYGRLTFNKVIRPCMKKTIYENEGFREIKGYEYQLYVRASDKLFRADISEDYKTRGRKLLRFNGPVPPP ?
Response: 7.5
